Data provenance: patent US20260234738A1

# TESTED_SYSTEM: SARS-CoV-2 Spike Protein (RBD) (R319-F541).mFc (SARS-CoV-2)
# EXPERIMENTAL_DETAILS: Luminex beads, supernatant
Measured MFI by item
Quick reminder: number only, in MFI, skip the unit.

BINDER: mAb10938 (antibody, V domains shown) VH: EVQLVESGGGLVQPGGSLRLSCAVSGFTVSSNYMSWVRQAPGKGLEWVSLIYSGGSTFYADSVKGRFTISRHNSKNTLYLQMNSLRAEDTAVYYCAREGGYSYDYNYWGQGTLVTVSS VL: DIQMTQSPSSLSASVGDRVTITCQASQDIRNYLNWYQQKPGKAPKLLIYDASNLETGVPSRFSGIGSGTDFTFTISSLQPEDIATYYCQQYDNLPITFGQGTRLEIKR
U: MFI
MFI: 30500
--
BINDER: mAb10957 (antibody, V domains shown) VH: EVQLVESGGGLVQPGGSLRLSCAASGVTVSSNYMSWVRQAPGKGLEWVSVIYSGGSTFYADSVKGRFTISRDNSKNTLFLQMNSLRIEDTAVYYCARDLGPYGMDVWGQGTTVTVSS VL: DIQLTQSPSFLSASVGDRVTITCRASQGISSYLAWYQQKPGKAPKLLIYAASTLQSGVPSRFSGSGSGTQFILTISSLQPEDFATYYCQQLNSYPGFTFGPGTKVDIKR
U: MFI
MFI: 18700

Switching to the query record.
What value of measured MFI is listed for mAb10967 (antibody, V domains shown) VH: EVQLVESGGGLVQPGGSLRLSCAASGFTVSSNYMSWVRQAPGKGLEWVSVIYPGGSTFYADSVKGRFTISRDNSKNTLYLQMNSLRAEDTAVYYCARDQRDFAWGQGTLVTVSS VL: DIQMTQSPSSLSASVGDRVTITCQASQDISNYLNWYQQKPGKAPKLLIYDASNLETGVPSRFSGSGSGTDFTFTISGLQPEDIATYYCQQYDNLPPTFGQGTRLEIKR ?
29600
